Test system: NCI-H460 lung
Assay: NCI tumour cell line growth inhibition, 48 h; in the data active = GI50 below about 0.43 µM; inactive = the rest
In this exercise, the only acceptable responses are active, inactive

{"molecule": "O=C(O)C(O)C(O)C1[O][Sb][O]C1CO (stereo not given)", "answer-label": "inactive"}
{"molecule": "NC(=O)c1ccc(-c2c3ccccc3cc3c2ccc2ccccc23)cc1", "answer-label": "inactive"}
{"molecule": "COc1cc(Nc2ncc(-c3ccccc3)o2)cc(OC)c1OC", "answer-label": "active"}
{"molecule": "O=C(Nc1ccc(-c2nc3ccc(NC(=O)c4ccc(Cl)cc4)cc3[nH]2)cc1)c1ccc(Cl)cc1", "answer-label": "inactive"}

Query string: Kindly provide the recorded test outcome for the following molecule: `C[C@H]1CC(=O)[C@@]2(O)C#C/C=C\C#C[C@@H]3Nc4c(cc(O)c5c4C(=O)c4ccccc4C5=O)[C@]24O[C@]314`
Result string: active

---

Tested on: UO-31 renal
Experiment: NCI tumour cell line growth inhibition, 48 h
measurement-type: GI50

// below: answered compounds
{"compound": "COc1cc([N+](=O)[O-])c2ncccc2c1O", "GI50": "2.05 µM"}
{"compound": "Fc1ccc(-c2c(-c3ccncc3)n(CCN3CCOCC3)c3cccnc23)cc1", "GI50": "> 5.79 µM"}
{"compound": "NC(=O)c1ccc(-c2c3ccccc3cc3c2ccc2ccccc23)cc1", "GI50": "7.1 µM"}
{"compound": "C=C(C)[C@@H]1CC[C@]2(C#N)CC[C@]3(C)[C@H](CC[C@@H]4[C@@]5(C)CCCNC(C)(C)[C@@H]5CC[C@]43C)[C@@H]12", "GI50": "2.41 µM"}
{"compound": "O=C(O)C(O)C(O)C1[O][Sb][O]C1CO (configuration not stated)", "GI50": "> 100 µM"}

Hello, I would appreciate it if you could give GI50 for each entry below.
1. CC1=CC(=O)c2[nH]c3ccccc3c2C1=O
2. CCn1cc(C2NC(=O)c3cc(F)ccc3N2)c2cccc(Cl)c21 (configuration not stated)
3. O=C(N/N=C\c1cc(Cl)ccc1O)N/N=C/c1cc(Cl)ccc1O
4. Fc1cc(Nc2ccc3c(OCCCN4CCOCC4)cccc3n2)ccc1Cl
5. O.O=[Se](=O)(O)O.[NH-]C1CCCCC1[NH-].[Pt+2] (configuration not stated)
6. COCCn1cc(-c2csc(-c3c[nH]c4ccc(F)cc34)n2)c2cccnc21
7. O=C(/C=C/c1cccs1)Nc1ncc(Cc2ccccc2F)s1

Result string:
["4 µM", "2.88 µM", "0.489 µM", "1.65 µM", "7.66 µM", "4.41 µM", "0.437 µM"]

---

Tested on: HCT-15 colon
Assay: NCI tumour cell line growth inhibition, 48 h
measurement-type: TGI

{"chem-smiles": "Fc1cc(Nc2ccc3c(OCCCN4CCOCC4)cccc3n2)ccc1Cl", "measurement-type": "TGI", "endpoint-value": "3.06 µM"}
{"chem-smiles": "NCCCN1CCN(CCCNc2ccc3ncn4c5ccccc5c(=O)c2c34)CC1", "measurement-type": "TGI", "endpoint-value": "> 25 µM"}

Hello, I would appreciate it if you could give TGI for each entry below.
1. Clc1ccc(CCN2CCOCC2)c(Cl)c1
2. O=c1c2c(=NCCCN3CCCC3)cc3c(=O)n(CCCN4CCCC4)c(=O)c4c(NCCCN5CCCC5)cc(c(O)n1CCCN1CCCC1)c2c4-3
3. CC1=NN(C(=O)Cc2ccccc2)C(=O)/C1=C\c1cccc(O)c1

Result string:
["> 100 µM", "> 100 µM", "> 100 µM"]
